# Target Or Test System: VLA-4 (α4β1 integrin) binding to immobilized VCAM-1 (Homo sapiens, UniProt P05556+P13612)
# Construct: followed by 10 μl of Ramos cell-derived VLA-4; endogenous in cells; host or cells: Ramos cells (VLA-4 preparation derived from the cells)
# Sequence (P13612 34-1032): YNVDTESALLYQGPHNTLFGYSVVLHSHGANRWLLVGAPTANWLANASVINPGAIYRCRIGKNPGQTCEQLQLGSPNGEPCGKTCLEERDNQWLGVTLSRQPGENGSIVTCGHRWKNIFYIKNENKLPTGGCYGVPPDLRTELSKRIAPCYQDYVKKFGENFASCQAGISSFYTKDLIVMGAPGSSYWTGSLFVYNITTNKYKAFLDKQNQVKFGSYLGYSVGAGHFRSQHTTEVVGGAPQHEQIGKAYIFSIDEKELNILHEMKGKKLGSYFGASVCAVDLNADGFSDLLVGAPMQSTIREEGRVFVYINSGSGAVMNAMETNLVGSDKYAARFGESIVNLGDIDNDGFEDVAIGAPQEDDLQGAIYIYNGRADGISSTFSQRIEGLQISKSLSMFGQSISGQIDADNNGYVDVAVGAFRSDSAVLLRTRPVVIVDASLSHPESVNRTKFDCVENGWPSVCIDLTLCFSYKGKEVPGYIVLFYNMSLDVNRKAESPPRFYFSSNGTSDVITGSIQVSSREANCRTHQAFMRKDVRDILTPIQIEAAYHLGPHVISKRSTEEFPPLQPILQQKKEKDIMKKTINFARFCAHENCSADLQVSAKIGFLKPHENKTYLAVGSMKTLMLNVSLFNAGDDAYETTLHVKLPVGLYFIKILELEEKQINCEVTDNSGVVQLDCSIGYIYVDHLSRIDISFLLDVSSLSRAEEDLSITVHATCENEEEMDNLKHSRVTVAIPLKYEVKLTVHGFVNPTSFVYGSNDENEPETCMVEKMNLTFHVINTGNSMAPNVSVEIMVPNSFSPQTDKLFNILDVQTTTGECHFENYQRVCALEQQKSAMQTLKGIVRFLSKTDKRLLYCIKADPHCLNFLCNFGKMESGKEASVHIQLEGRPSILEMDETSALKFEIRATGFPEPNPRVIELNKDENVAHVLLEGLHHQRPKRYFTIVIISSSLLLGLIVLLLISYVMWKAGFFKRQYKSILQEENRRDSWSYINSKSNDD
# Sequence (P05556 21-798): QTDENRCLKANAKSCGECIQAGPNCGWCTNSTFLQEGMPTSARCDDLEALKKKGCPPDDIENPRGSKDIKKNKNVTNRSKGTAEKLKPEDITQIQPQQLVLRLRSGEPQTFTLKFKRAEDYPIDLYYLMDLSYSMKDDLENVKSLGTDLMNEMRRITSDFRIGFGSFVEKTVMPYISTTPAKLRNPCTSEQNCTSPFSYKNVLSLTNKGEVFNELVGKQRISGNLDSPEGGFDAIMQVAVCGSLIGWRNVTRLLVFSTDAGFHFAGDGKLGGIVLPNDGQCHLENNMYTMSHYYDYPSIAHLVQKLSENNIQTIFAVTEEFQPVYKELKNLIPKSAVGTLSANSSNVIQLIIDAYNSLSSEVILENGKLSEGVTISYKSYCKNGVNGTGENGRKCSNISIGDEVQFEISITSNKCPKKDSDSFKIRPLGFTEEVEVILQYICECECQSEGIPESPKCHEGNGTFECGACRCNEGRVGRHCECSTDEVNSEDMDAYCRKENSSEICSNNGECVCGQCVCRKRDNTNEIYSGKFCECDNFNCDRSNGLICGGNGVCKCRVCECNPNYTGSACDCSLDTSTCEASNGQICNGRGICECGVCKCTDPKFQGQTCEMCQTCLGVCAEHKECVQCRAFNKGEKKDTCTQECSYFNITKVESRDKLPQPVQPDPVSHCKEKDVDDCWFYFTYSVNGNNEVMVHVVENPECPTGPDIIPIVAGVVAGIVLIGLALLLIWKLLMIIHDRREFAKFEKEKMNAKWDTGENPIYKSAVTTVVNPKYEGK
# Test: VLA-4/VCAM-1 Screening Assay (solid-phase, dual antibody ELISA)
# Measurement Parameters: Ramos cell-derived VLA-4, recombinant human VCAM-1 coated plates, 2 hr at 37° C.; read-out: IC50
pIC50: −log10 of the molar value.
Please use class 1 whenever pIC50 is not below 9, and class 0 whenever it is.

Query: For this molecule, is measured pIC50 9 or higher? COc1ccc(CC2(C(=O)N[C@@H](Cc3ccc(NC(=O)c4ccnc5ccccc45)cc3)C(=O)O)CCCC2)cc1
Result: class 0

Query: Same for NCC(=O)NCCC1(C(=O)N[C@@H](Cc2ccc(NC(=O)c3c(Cl)cccc3Cl)cc2)C(=O)O)CCCC1
Result: class 0

Query: Note, next up: COCCC1(C(=O)NC(Cc2ccc(N3C(=O)C(CC(C)C)N(C(C)=O)C3c3ccc(OC)cc3)cc2)C(=O)O)CCCC1 (single isomer, unassigned) [Example 137]
Result: class 0

Query: Okay, and CC1(C(=O)N[C@@H](Cc2ccc(NC(=O)CCN3CCCCC3)cc2)C(=O)O)CC1(Cl)Cl (stereo partly shown) ?
Result: class 0

Query: Same question, N#CC1(c2ccccc2)CCN(C(=O)Nc2ccc(C[C@H](NC(=O)C34CC5CC(CC(C5)C3)C4)C(=O)O)cc2)CC1 this time
Result: class 1
